STUDY_TARGET: BRAF V600E (Homo sapiens, UniProt P15056, V600E)
Construct: endogenous C-terminal HiBiT fusion tag on BRAF V600E allele; endogenous in cells; host or cells: A375 clone 1F10 (CRISPR-Cas9 knock-in of the HiBiT tag; parental A375 from ATCC)
Sequence (P15056 whole entry V600E, the tested form may be a part): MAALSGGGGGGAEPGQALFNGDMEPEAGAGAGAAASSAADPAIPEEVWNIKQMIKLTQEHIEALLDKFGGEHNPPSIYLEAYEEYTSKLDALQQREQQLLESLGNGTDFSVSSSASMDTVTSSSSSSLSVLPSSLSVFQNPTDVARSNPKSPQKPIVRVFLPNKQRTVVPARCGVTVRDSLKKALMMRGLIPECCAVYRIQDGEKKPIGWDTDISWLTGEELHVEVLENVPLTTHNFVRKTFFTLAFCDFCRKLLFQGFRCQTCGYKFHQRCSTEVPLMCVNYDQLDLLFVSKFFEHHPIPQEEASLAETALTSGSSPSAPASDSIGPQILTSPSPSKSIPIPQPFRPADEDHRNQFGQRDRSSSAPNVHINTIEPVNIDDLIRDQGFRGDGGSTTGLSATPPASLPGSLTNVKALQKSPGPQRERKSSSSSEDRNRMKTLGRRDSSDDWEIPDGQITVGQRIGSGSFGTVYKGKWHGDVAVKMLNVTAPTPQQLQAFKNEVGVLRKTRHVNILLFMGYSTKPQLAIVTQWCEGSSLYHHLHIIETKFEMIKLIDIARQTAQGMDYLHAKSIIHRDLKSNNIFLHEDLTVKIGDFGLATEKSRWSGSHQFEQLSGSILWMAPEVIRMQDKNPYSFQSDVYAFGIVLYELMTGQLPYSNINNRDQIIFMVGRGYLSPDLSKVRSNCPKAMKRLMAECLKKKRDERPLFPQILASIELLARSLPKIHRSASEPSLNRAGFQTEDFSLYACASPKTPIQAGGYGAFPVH
EXPERIMENTAL_PROTOCOL: BRAF HiBiT degradation assay, C-terminal HiBiT-tagged BRAF V600E A375 cells (clone 1F10), Nano-Glo HiBiT Lytic assay
Assay type: cell-based
SETTINGS: A375 (BRAF V600E); DC50 at 50%: fitted conc. at Y=50
ASSAY_ENDPOINT: DC50

Fill in the blank: the reported DC50 of CCCS(=O)(=O)Nc1cccc(-c2nc(CCC3CCN(C(=O)C4CCN(C(=O)C5CCN(c6ccc(C7CCC(=O)NC7=O)cn6)CC5)CC4)CC3)sc2-c2ccnc(N)n2)c1F (racemic) [Compound 205] is ____.
< 10 nM

Next compound up: CCCS(=O)(=O)Nc1cccc(-c2nc(C3CCN(C4CN(C(=O)CC5CCN(c6ccc(C7CCC(=O)NC7=O)cc6)CC5)C4)CC3)sc2-c2ccnc(N)n2)c1F (racemic) [Compound 215]
10 to 50 nM

Follow-up item: CCN(C)S(=O)(=O)Nc1cccc(-c2nc(C(C)(C)C)sc2-c2ccnc(Nc3ccc(N4CCN(CC5CCN(c6ccc([C@H]7CCC(=O)NC7=O)cc6)CC5)CC4)cn3)n2)c1F [Compound 128]
50 to 500 nM

One more compound: CCCS(=O)(=O)Nc1cccc(-c2nc(C(C)(C)C)sc2-c2ccnc(Nc3ccc4c(c3)CCN(C(=O)CN3CCN(c5cc(C6CCC(=O)NC6=O)ccn5)CC3)C4)n2)c1F (racemic) [Compound 120]
50 to 500 nM

What about this compound? CCCS(=O)(=O)Nc1cccc(-c2nc(C(C)(C)C)sc2-c2ccnc(Nc3ccc(N4CCN(C(=O)CC5(O)CCN(c6ccc(NC7CCC(=O)NC7=O)cc6F)CC5)CC4)c(F)c3)n2)c1F (racemic) [Compound 52]
< 10 nM
